test: melting temperature; melt of duplexes; details: sodium 0.0675 M; strand 1 µM
observation type: Tm (°C)

substance="CGACGTGCCAGATGTGCTG+CAGCACATCCGGCACGTCG (((((((((.(((((((((+))))))))).)))))))))" observation_type=Tm val=59.2
substance="CGACGTGCAGGATGTGCTG+CAGCACATTAGGCACGTCG ((((((((...((((((((+))))))))...))))))))" observation_type=Tm val=51.3
substance="CGACGTGCGGAATGTGCTG+CAGCACATTTTGCACGTCG ((((((((..(((((((((+)))))))))..))))))))" observation_type=Tm val=55.2
substance="CGACGTGCTCTATGTGCTG+CAGCACATATAGCACGTCG (((((((((.(((((((((+))))))))).)))))))))" observation_type=Tm val=54.3
substance="CGACGTGCTCGATGTGCTG+CAGCACATTAAGCACGTCG (((((((((..((((((((+))))))))..)))))))))" observation_type=Tm val=51.9
substance="CGACGTGCCTCATGTGCTG+CAGCACATTTCGCACGTCG ((((((((...((((((((+))))))))...))))))))" observation_type=Tm val=46.5
substance="CGACGTGCAAGATGTGCTG+CAGCACATTTTGCACGTCG ((((((((((.((((((((+)))))))).))))))))))" observation_type=Tm val=57.3
substance="CGACGTGCTCTATGTGCTG+CAGCACATGGCGCACGTCG ((((((((.(.((((((((+)))))))).).))))))))" observation_type=Tm val=51.6
substance="CGACGTGCGCAATGTGCTG+CAGCACATGGTGCACGTCG ((((((((.(.((((((((+)))))))).).))))))))" observation_type=Tm val=54.3
substance="CGACGTGCAACATGTGCTG+CAGCACATGTCGCACGTCG ((((((((.((((((((((+)))))))))).))))))))" observation_type=Tm val=57.8
substance="CGACGTGCAACATGTGCTG+CAGCACATTAGGCACGTCG ((((((((...((((((((+))))))))...))))))))" observation_type=Tm val=48.9

###

test: melting temperature; melt of duplexes; conditions: sodium 0.0675 M; strand 1 µM
observation type: Tm

substance="CGACGTGCGCAATGTGCTG+CAGCACATACGGCACGTCG ((((((((...((((((((+))))))))...))))))))" observation_type=Tm val="48.6 °C"
substance="CGACGTGCCATATGTGCTG+CAGCACATTCAGCACGTCG ((((((((...((((((((+))))))))...))))))))" observation_type=Tm val="50.2 °C"
substance="CGACGTGCTAAATGTGCTG+CAGCACATGCTGCACGTCG ((((((((...((((((((+))))))))...))))))))" observation_type=Tm val="50.1 °C"

###

assay: melting temperature; melt of duplexes; settings: sodium 0.0675 M; strand 1 µM
Each entry below lists one item and its recorded Tm value.
observation type: Tm (°C)

substance="CGACGTGCTTAATGTGCTG+CAGCACATATGGCACGTCG ((((((((...((((((((+))))))))...))))))))" val=51.4
substance="CGACGTGCCATATGTGCTG+CAGCACATGTAGCACGTCG ((((((((.(.((((((((+)))))))).).))))))))" val=51.3
substance="CGACGTGCCTAATGTGCTG+CAGCACATTGAGCACGTCG ((((((((..(((((((((+)))))))))..))))))))" val=52.7
substance="CGACGTGCCGCATGTGCTG+CAGCACATTCGGCACGTCG ((((((((((.((((((((+)))))))).))))))))))" val=59.1
substance="CGACGTGCAGAATGTGCTG+CAGCACATGATGCACGTCG (((((((((..((((((((+))))))))..)))))))))" val=57.9
substance="CGACGTGCTGGATGTGCTG+CAGCACATTGCGCACGTCG ((((((((...((((((((+))))))))...))))))))" val=49.5
substance="CGACGTGCTCTATGTGCTG+CAGCACATACCGCACGTCG ((((((((..(((((((((+)))))))))..))))))))" val=48.5
substance="CGACGTGCAGTATGTGCTG+CAGCACATCACGCACGTCG ((((((((...((((((((+))))))))...))))))))" val=50.9
substance="CGACGTGCTATATGTGCTG+CAGCACATGAGGCACGTCG ((((((((...((((((((+))))))))...))))))))" val=52
substance="CGACGTGCCACATGTGCTG+CAGCACATAGGGCACGTCG (((((((((..((((((((+))))))))..)))))))))" val=54.7
substance="CGACGTGCTCCATGTGCTG+CAGCACATTTCGCACGTCG ((((((((...((((((((+))))))))...))))))))" val=45.7
substance="CGACGTGCTCGATGTGCTG+CAGCACATTCTGCACGTCG ((((((((...((((((((+))))))))...))))))))" val=49.4
